Consider the following substances; for each one, report its Liver weight.
TEST_SUMMARY: Tolerability in Sprague-Dawley rats, body and organ weights (Example 22)
Assay type: in vivo
RUN_PARAMETERS: male Sprague-Dawley rats, 50 mg/kg s.c. weekly for 6 weeks (7 doses), end of study
Give the value in g but do not write g after it.

The value of Liver weight measured for the substance 1198623 (CTAAGTAAGGTTTCCC; modified gapmer, further chemistry not given here) [compound 1198623] turned out to be 20

The value of Liver weight measured for the substance 1198872 (TGTATGTCAGAAGAGT; chemically modified gapmer, further chemistry not given here) [compound 1198872] turned out to be 17

The value of Liver weight measured for the substance 1198728 (TATTAGAGTATGTGGC; modified gapmer, further chemistry not given here) [compound 1198728] turned out to be 15

The value of Liver weight measured for the substance 1198605 (GTAATATTGCAATCTG; modified gapmer, further chemistry not given here) [compound 1198605] turned out to be 18

The value of Liver weight measured for the substance 1198831 (CACTTTTACATTAGGA; chemically modified gapmer, further chemistry not given here) [compound 1198831] turned out to be 19

The value of Liver weight measured for the substance 1197270 (TTAAAGTGTATGTCAG; cEt gapmer with 2'-OMe nucleoside, phosphorothioate, further chemistry not given here) [compound 1197270] turned out to be 15
